For each of the substances below, state its % UTC.
tested on: PTEN; experiment: 2-14-2 gapped oligomers targeted to PTEN (Example 50), in vivo single injection, liver mRNA; details: injected once 2 μmol/kg, 72 hrs
Strand notation (5' to 3'): a small letter for the sugar, then the base; units joined by * are phosphorothioate-linked, units joined directly phosphodiester-linked; [ ] holds rarer units or linkages, { } end groups; capitals alone tell only the bases. [cMOE-R-N] = 6-(R)-CH2-O-CH3 BNA nucleoside (4'-CH(CH2OCH3)-O-2' bridge, R configuration) (N: the base); k = constrained ethyl (cEt); d = 2'-deoxy (DNA)
Give bare numbers, in %.

>  <substance>
ISIS NO. 400523: CSUSGCTAGCCTCTGGATUSUS; 6-(S)-CH3 BNA 2-14-2 gapped oligomer targeted to PTEN (CUGCTAGCCTCTGGATUU; sugars from the 5' end k2 d14 k2, backbone and methylation of C not given here)

>  <test.target>
PTEN

>  <% UTC [%]>
17

$$$$

API: the following record is the query input.
Task: Name the recorded % UTC of ISIS NO. 400524: CRURGCTAGCCTCTGGATURUR; 6-(R)-CH2-O-CH3 BNA 2-14-2 gapped oligomer targeted to PTEN ([cMOE-R-C]*[cMOE-R-U]*dG*dC*dT*dA*dG*dC*dC*dT*dC*dT*dG*dG*dA*dT*[cMOE-R-U]*[cMOE-R-U]; antisense) , assay system PTEN.
Output: 23
